system: Rattus norvegicus; test: Inhibition of deoxycorticosterone acetate-induced urinary electrolyte effects in sc dosed adrenalectomized rat assessed as increase in Na:K ratio; type: functional, Urine
Field: label. Allowed values: yes (MED < 0.3 mg) or no (MED >= 0.3 mg).

[[record]]
smiles_input = "CC(C)OC(=O)[C@H]1[C@@H]2[C@H](CC[C@@]3(C)[C@H]2CC[C@@]32CCC(=O)O2)[C@@]2(C)CCC(=O)C=C2[C@@H]1O"
category_label = "yes"


## Task Does the reported MED of the following compound sit strictly below 0.3 mg? COC(=O)[C@H]1[C@@H]2[C@H](CC[C@@]3(C)[C@H]2CC[C@@]32CCC(=O)O2)[C@@]2(C)CCC(=O)C=C2[C@@H]1Br
## Result no

## Task Hello, is MED of the following compound strictly smaller than 0.3 mg? CC(=O)S[C@@H]1CC2=CC(=O)CC[C@]2(C)[C@H]2CC[C@@]3(C)[C@@H](CC[C@@]34CCC(=O)O4)[C@H]12
## Result no

## Task Just wondering, is MED of COC(=O)[C@H]1[C@@H]2[C@H](CC[C@@]3(C)[C@H]2CC[C@@]32CCC(=O)O2)[C@@]2(C)CCC(=O)C=C2[C@H]1C below 0.3 mg?
## Result no

----------
tested on: Rattus norvegicus; experiment: Inhibition of deoxycorticosterone acetate-induced urinary electrolyte effects in sc dosed adrenalectomized rat assessed as increase in Na:K ratio; format: functional, Urine
experimental endpoint: MED (mg)
Report the value in mg with no unit label.

[[record]]
smiles_input = "COC(=O)[C@H]1[C@@H]2[C@H](CC[C@@]3(C)[C@H]2CC[C@@]32CCC(=O)O2)[C@@]2(C)CCC(=O)C=C2[C@@H]1C"
target_or_test_system = "Rattus norvegicus"
experimental_endpoint = "MED"
unit_text = "mg"
measured_value = 0.2


API: the following record is the query input.
Record COC(=O)[C@H]1[C@@H]2[C@H](CC[C@@]3(C)[C@H]2CC[C@@]32CCC(=O)O2)[C@@]2(C)CCC(=O)C=C2[C@@H]1O , field MED: 0.42
